System: Neisseria gonorrhoeae
Experiment: Expected efficacy of antibiotic agents
Conditions: Gram: neg
reported-metric: Expected efficacy against Neisseria gonorrhoeae

Please review the following examples before continuing.
molecular-string: O=C(O)c1cn(C2CC2)c2cc(N3CCNCC3)c(F)cc2c1=O
reported-measurement: yes
--
molecular-string: NC[C@H]1O[C@H](O[C@H]2[C@H](O)[C@@H](O[C@H]3O[C@H](CO)[C@@H](O)[C@H](N)[C@H]3O)[C@H](N)C[C@@H]2N)[C@H](N)C[C@@H]1O
reported-measurement: no
--
molecular-string: CO/N=C(\C(=O)N[C@@H]1C(=O)N2C(C(=O)O)=C(CSc3nc(=O)c(=O)[nH]n3C)CS[C@H]12)c1csc(N)n1
reported-measurement: yes
--
molecular-string: C/C(=C\C(=O)OCCCCCCCCC(=O)O)C[C@@H]1OC[C@H](C[C@@H]2O[C@H]2[C@@H](C)[C@H](C)O)[C@@H](O)[C@H]1O
reported-measurement: no

// next entry
(Q) What measured Expected efficacy against Neisseria gonorrhoeae goes with "CN[C@H](CC(C)C)C(=O)N[C@H]1C(=O)N[C@@H](CC(N)=O)C(=O)N[C@H]2C(=O)N[C@H]3C(=O)N[C@H](C(=O)N[C@H](C(=O)O)c4cc(O)cc(O)c4-c4cc3ccc4O)[C@H](O)c3ccc(c(Cl)c3)Oc3cc2cc(c3O[C@@H]2O[C@H](CO)[C@@H](O)[C@H](O)[C@H]2O[C@H]2C[C@](C)(N)[C@H](O)[C@H](C)O2)Oc2ccc(cc2Cl)[C@H]1O" ?
(A) no

Reference source for all entries: patent US9717748B2
